Recorded values, source PubChem BioAssay (NCATS).

Molecular target: Rap guanine nucleotide exchange factor 4 (Homo sapiens) (UniProt Q8WZA2)
Sequence (Q8WZA2 whole entry, looked up): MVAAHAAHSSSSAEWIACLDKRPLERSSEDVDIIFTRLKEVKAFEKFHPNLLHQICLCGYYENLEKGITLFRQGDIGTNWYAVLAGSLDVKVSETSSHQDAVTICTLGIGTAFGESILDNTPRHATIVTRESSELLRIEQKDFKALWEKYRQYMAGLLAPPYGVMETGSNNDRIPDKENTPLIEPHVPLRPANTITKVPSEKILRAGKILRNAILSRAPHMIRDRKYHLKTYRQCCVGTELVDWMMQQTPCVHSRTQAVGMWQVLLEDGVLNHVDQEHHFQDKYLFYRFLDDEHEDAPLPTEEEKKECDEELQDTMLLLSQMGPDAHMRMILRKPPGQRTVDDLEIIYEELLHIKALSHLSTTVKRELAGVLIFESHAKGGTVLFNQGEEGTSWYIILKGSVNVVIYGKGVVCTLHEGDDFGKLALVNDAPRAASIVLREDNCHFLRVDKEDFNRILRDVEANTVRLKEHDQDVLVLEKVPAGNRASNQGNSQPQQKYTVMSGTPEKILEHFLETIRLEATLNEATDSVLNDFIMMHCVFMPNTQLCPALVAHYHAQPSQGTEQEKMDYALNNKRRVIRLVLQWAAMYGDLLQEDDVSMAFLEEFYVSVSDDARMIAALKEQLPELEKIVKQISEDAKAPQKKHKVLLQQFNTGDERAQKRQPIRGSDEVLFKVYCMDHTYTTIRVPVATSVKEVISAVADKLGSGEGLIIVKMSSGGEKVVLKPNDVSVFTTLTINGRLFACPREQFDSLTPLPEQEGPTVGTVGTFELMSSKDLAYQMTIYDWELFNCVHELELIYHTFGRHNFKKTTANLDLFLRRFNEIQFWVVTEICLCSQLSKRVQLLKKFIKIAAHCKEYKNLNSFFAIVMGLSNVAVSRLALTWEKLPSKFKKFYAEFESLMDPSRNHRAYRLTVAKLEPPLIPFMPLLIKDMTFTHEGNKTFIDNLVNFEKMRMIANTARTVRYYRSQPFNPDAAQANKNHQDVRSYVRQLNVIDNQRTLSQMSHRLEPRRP
Assay: Confirmatory qHTS for agonist of cAMP-regulated guanine nucleotide exchange factor 4 (EPAC2) (AID 1645884); also: nearly all actives have a fitted effect of over 65% in size
Conditions: EPAC2 GEF activity, Rap1B-BODIPY-GDP fluorescence; series mostly up to 154 µM
Inconclusive results are not listed. Calls of active or inactive are those of the source. Calls follow the shape of the dose curve; as a rule, active = well fitted activation curve with a large enough effect; inconclusive = small, poorly fitted or top-dose-only effect; inactive = no such curve, though single readings can be large or run the other way.
VALUE_KIND: activation

Fill in: Rap guanine nucleotide exchange factor 4 (Homo sapiens) (UniProt Q8WZA2) activation for COC1C(CO)OC(n2c3c(Cl)cccc3c3c4c(c5c6cccc(Cl)c6[nH]c5c32)C(=O)NC4=O)C(O)C1O (stereo not given) = inactive

Readout activation for Cc1ccc(C2(C)NC(=O)N(CC(=O)Nc3ccccc3N3CCCCC3)C2=O)cc1 (stereo not given) , test system Rap guanine nucleotide exchange factor 4 (Homo sapiens) (UniProt Q8WZA2), was inactive

// assay Rap guanine nucleotide exchange factor 4 (Homo sapiens) (UniProt Q8WZA2), entry CCc1nnc(NC(=O)c2cc(-c3ccco3)nc3ccccc23)s1 , activation value = inactive

Tested on Rap guanine nucleotide exchange factor 4 (Homo sapiens) (UniProt Q8WZA2), the item CCOC(=O)c1cnc2ccccc2c1Nc1cccc(OC)c1 showed activation equal to inactive

Summary line: COc1ccc(/C=C(\NC(=O)c2cccs2)C(=O)Nc2ccc(C)cc2)cc1OC , Rap guanine nucleotide exchange factor 4 (Homo sapiens) (UniProt Q8WZA2), reported activation = inactive

Sample COc1ccccc1Cn1c(=O)oc2ccc(C)cc21 , system: Rap guanine nucleotide exchange factor 4 (Homo sapiens) (UniProt Q8WZA2). Its activation is inactive

Next:
Measured activation for this entry CCC(=O)C1=C(c2cccc([N+](=O)[O-])c2)N(C(=O)CC)n2c(nnc2-c2ccccc2)S1 on Rap guanine nucleotide exchange factor 4 (Homo sapiens) (UniProt Q8WZA2): inactive

Value (activation, Rap guanine nucleotide exchange factor 4 (Homo sapiens) (UniProt Q8WZA2)) for record N#Cc1c(-c2ccccc2)nc(SCC(=O)Nc2ccc(OC(F)(F)Cl)cc2)[nH]c1=O = inactive

The molecule O=C1/C(=C/c2ccc(F)cc2)SC(=S)N1NS(=O)(=O)c1ccccc1 on Rap guanine nucleotide exchange factor 4 (Homo sapiens) (UniProt Q8WZA2): activation was inactive

Case CC(C)Cn1c(N)c(C(=O)NCC2CCCO2)c2nc3ccccc3nc21 (stereo not given) , Rap guanine nucleotide exchange factor 4 (Homo sapiens) (UniProt Q8WZA2), activation recorded as inactive
